For each of the compounds below, state its IC50.
- assay method text: in vitro
- conditions used: human

Check the records and state IC50 for CNC(=O)C(C)c1ccc(Oc2nc3ccc(Cl)cc3s2)cc1 (centres unmarked) > 100 µM

Check the records and state IC50 for CC(C(=O)NC1CC1)c1ccc(Oc2nc3ccc(Cl)cc3s2)cc1 (centres unmarked) > 100 µM

Check the records and state IC50 for CC(C(=O)NC1CCOC1)c1ccc(Oc2nc3ccc(Cl)cc3s2)cc1 (centres unmarked) > 100 µM

Check the records and state IC50 for CC(C(=O)NCCN(C)C)c1ccc(Oc2nc3ccc(Cl)cc3s2)cc1 (centres unmarked) 5.6 µM

Check the records and state IC50 for CC(C(=O)N1CCS(=O)(=O)CC1)c1ccc(Oc2nc3ccc(Cl)cc3s2)cc1 (centres unmarked) 40 µM

Check the records and state IC50 for CC(C(=O)NCCS(C)(=O)=O)c1ccc(Oc2nc3ccc(Cl)cc3s2)cc1 (centres unmarked) > 100 µM

Check the records and state IC50 for CC(C)NC(=O)C(C)c1ccc(Oc2nc3ccc(Cl)cc3s2)cc1 (centres unmarked) > 100 µM

Check the records and state IC50 for CC(C(=O)NCCO)c1ccc(Oc2nc3ccc(Cl)cc3s2)cc1 (centres unmarked) > 100 µM

---

For each of the molecules below, state its concentrations at which not toxic, S. cerevisiae cytotoxicity testing.
- Test system: S. cerevisiae
- assay method text: in vitro
- conditions used: Saccharomyces cerevisiae

Quote concentrations at which not toxic, S. cerevisiae cytotoxicity testing with test system S. cerevisiae for CNC(=O)Cc1ccc(O)cc1Oc1nc2ccc(Cl)cc2s1 [NZ-390] ≥ 100 µM

Quote concentrations at which not toxic, S. cerevisiae cytotoxicity testing with test system S. cerevisiae for COC(=O)C(C)c1ccc(Oc2cnc3cc(Cl)ccc3n2)cc1 (stereo not shown) [NZ-308] ≥ 100 µM

Quote concentrations at which not toxic, S. cerevisiae cytotoxicity testing with test system S. cerevisiae for CNC(=O)Cc1ccc(Oc2nc3cc(F)c(F)cc3s2)cc1O [NZ-401] ≥ 100 µM

Quote concentrations at which not toxic, S. cerevisiae cytotoxicity testing with test system S. cerevisiae for O=C(Cc1ccc(Oc2nc3cc(F)c(F)cc3s2)cc1)N1CCCCC1 [NZ-481] ≥ 100 µM

Quote concentrations at which not toxic, S. cerevisiae cytotoxicity testing with test system S. cerevisiae for O=C(O)Cn1ccc(Oc2nc3ccc(Cl)cc3s2)cc1=O [NZ-397] ≥ 100 µM

Quote concentrations at which not toxic, S. cerevisiae cytotoxicity testing with test system S. cerevisiae for CNC(=O)Cc1c(F)cc(Oc2nc3cc(F)c(F)cc3s2)cc1F [NZ-450] ≥ 100 µM

Quote concentrations at which not toxic, S. cerevisiae cytotoxicity testing with test system S. cerevisiae for CC(C)NC(=O)Nc1ccc(Oc2nc3cc(F)c(F)cc3s2)cc1 [NZ-382] 50 to 100 µM

Quote concentrations at which not toxic, S. cerevisiae cytotoxicity testing with test system S. cerevisiae for CN(C)CCNC(=O)Cc1ccc(Oc2nc3ccc(F)cc3s2)cc1 [NZ-425] ≥ 100 µM

Quote concentrations at which not toxic, S. cerevisiae cytotoxicity testing with test system S. cerevisiae for COC(=O)C(O)c1ccc(Oc2nc3ccc(Cl)cc3s2)cc1 (stereo not shown) [NZ-336] 50 to 100 µM

Quote concentrations at which not toxic, S. cerevisiae cytotoxicity testing with test system S. cerevisiae for CNC(=O)C(C)c1ccc(Oc2nc3ccc(F)cc3s2)cc1 (stereo not shown) [NZ-386] ≥ 100 µM
